Tested on: 26S proteasomes from PC-3M cells, chymotrypsin-like (CT-L) activity
Assay: 26S proteasome activity assay, CT-L
Type: biochemical
Details: read-out: IC50 for CT-L; 26S proteasomes, 1h, 37°C
In this section we review reported IC50 values for a set of compounds.
Just the number in µM, nothing appended.

# compound, IC50 [µM]
records = [
    ("CC(C)C[C@H](NC(=O)[C@H](Cc1ccc2ccccc2c1)NC(=O)[C@H](CC(C)C)NC(=O)c1cnccn1)B(O)O [YSY01A]", 0.123),
]

Okay, now this compound:
Answer with the recorded IC50 of CC(C)C[C@H](NC(=O)[C@H](Cc1ccccc1)NC(=O)c1cnccn1)B(O)O [PS341, reference compound] only.
0.071

====

Tested on: Bcap37 cells
Assay: Cancer cell proliferation
Type: cell-based
Conditions: read-out: IC50, proliferation, 48 h
measurement type: pIC50
Would you please state pIC50, meaning minus log10 of the concentration in mol/L, as a bare number?

Answer with the recorded pIC50 of CC(C)C[C@H](NC(=O)[C@H](Cc1ccc2ccccc2c1)NC(=O)[C@H](CC(C)C)NC(=O)c1cnccn1)B(O)O [YSY01A] only.
6.06

====

Test system: HL-60 cells
Experiment: Cancer cell proliferation
Format: cell-based
Conditions: read-out: IC50, proliferation, 48 h
measurement type: IC50
A complete answer gives the number and then names the unit.

Answer with the recorded IC50 of CC(C)C[C@H](NC(=O)[C@H](Cc1ccc2ccccc2c1)NC(=O)[C@H](CC(C)C)NC(=O)c1cnccn1)B(O)O [YSY01A] only.
170 nM

====

Molecular target: 26S proteasomes from PC-3M cells, post-glutamyl peptide hydrolase (PGPH) activity (Homo sapiens)
Sequence (P28072 35-239): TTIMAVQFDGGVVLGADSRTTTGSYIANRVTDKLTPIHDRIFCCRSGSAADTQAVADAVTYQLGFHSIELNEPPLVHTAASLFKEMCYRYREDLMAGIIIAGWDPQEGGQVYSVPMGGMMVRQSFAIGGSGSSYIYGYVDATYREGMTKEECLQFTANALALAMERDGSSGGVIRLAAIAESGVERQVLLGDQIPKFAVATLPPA
measurement type: IC50 (nM)
Just the number in nM, nothing appended.

Answer with the recorded IC50 of CC(C)C[C@H](NC(=O)[C@H](Cc1ccc2ccccc2c1)NC(=O)[C@H](CC(C)C)NC(=O)c1cnccn1)B(O)O [YSY01A] only.
714
